meta.source: ChEMBL document CHEMBL5058577

- Tested on: HEK-293T
- ASSAY EXPLANATION: Multiplex assay against HEK293T
- Format: toxicity, cell-based
- ASSAY SETUP: human, 24 h, 10 µM, compound concentration 10 uM, replicate 1
Classification field: enter label 1 for Population Mitotic Cells (%) values not below 60%, label 0 for values below it.

Look over these answered cases.
INSERT INTO assay_data (molecule, subject_of_test, label_class) VALUES
  ('COc1ccc2c(c1)C(C(=O)N(Cc1ccc(N(C)C)cc1)c1ccc(C(C)C)cc1)CCC2.Cl (centres undefined)', 'HEK-293T', 'label 1'),
  ('O=C1COc2nccc(-c3ccccc3F)c2CN1Cc1cc(C(F)(F)F)cc(C(F)(F)F)c1', 'HEK-293T', 'label 0'),
  ('COc1c(C)cc(NC(=O)c2nn(Cc3ccc(F)cc3)c3c2CN(C(=O)c2ccc[nH]2)C[C@]3(C)C(N)=O)cc1C', 'HEK-293T', 'label 0');

Query: API: above_or_equal(metric=Population Mitotic Cells (%), cutoff=60%) for item CN1CCN(c2nc3cc(C(F)(F)F)ccc3n3cccc23)CC1.O=C(O)/C=C\C(=O)O.O=C(O)/C=C\C(=O)O
Reply: label 0

Query: Confirm if Population Mitotic Cells (%) reported for the molecule CSCC[C@H](NC=O)C(=O)N[C@@H](CC(C)C)C(=O)N[C@@H](Cc1ccccc1)C(=O)O is 60% or above.
Reply: label 1

Query: Test whether the molecule Cc1ccc(C(C)(O)c2nc3ccccc3s2)c(C)c1 (centres undefined) records Population Mitotic Cells (%) of 60% or higher.
Reply: label 1

Query: Threshold query (Population Mitotic Cells (%) >= 60%) on CC1(COc2ccc3c(c2)ncn3-c2ccc3cccc(N4CCC(N)CC4)c3n2)COC1 [CRENOLANIB]
Reply: label 0

Query: Dear colleague, could you confirm whether C[C@H](NC(=O)c1c(C(F)F)nn(C)c1Oc1cccc(C(F)(F)F)c1)c1ccc(C(=O)O)cc1 [PALUPIPRANT] has Population Mitotic Cells (%) at or above 60%?
Reply: label 1

Query: Does the reported Population Mitotic Cells (%) for CNC[C@H](O)c1ccc(O)c(O)c1 [EPINEPHRINE] fall at or above the 60% mark?
Reply: label 0

Query: Entry c1cc(OCCCN2CCCCC2)ccc1CN1CCCCC1 [JNJ-5207852] : is its Population Mitotic Cells (%) no less than 60%?
Reply: label 0

Query: Is reported Population Mitotic Cells (%) greater than or equal to 60% here: COc1cc(NC(=O)CCN2CCC(OC(=O)Nc3ccccc3-c3ccccc3)CC2)c(Cl)cc1CNC[C@H](O)c1ccc(O)c2[nH]c(=O)ccc12 [BATEFENTEROL]
Reply: label 0

Query: Given the entry CCCC(CCC)C(=O)O [VALPROIC ACID] , answer whether its Population Mitotic Cells (%) meets or surpasses 60%.
Reply: label 1

Query: Record CC(C)(C)c1ccc(S(=O)(=O)Nc2ccc(Cl)cc2C(=O)c2cc[n+]([O-])cc2)cc1 [VERCIRNON] ; criterion: Population Mitotic Cells (%) no lower than 60%. Met?
Reply: label 1

Query: Is Population Mitotic Cells (%) for CN1CCN2c3ncccc3Cc3ccccc3C2C1 (centres undefined) [MIRTAZAPINE] at or above 60%?
Reply: label 0

Query: Exam item: decide whether the reported Population Mitotic Cells (%) for C[C@@H]1C[C@H]2[C@@H]3CCC4=CC(=O)C=C[C@]4(C)[C@@]3(F)[C@@H](O)C[C@]2(C)[C@@]1(O)C(=O)CO [DEXAMETHASONE] is at least 60%.
Reply: label 1

Query: I'd appreciate it if you could say whether CC[C@H]1OC(=O)[C@H](C)[C@@H](O[C@H]2C[C@@](C)(OC)[C@@H](O)[C@H](C)O2)[C@H](C)[C@@H](O[C@@H]2O[C@H](C)C[C@H](N(C)C)[C@H]2O)[C@@]2(C)CC(C)=C(O2)[C@H](C)[C@@H](O)[C@]1(C)O has Population Mitotic Cells (%) at least equal to 60%.
Reply: label 0

Query: Is Population Mitotic Cells (%) at least 60%? Consider Cc1nc2ccc(Oc3ccc(F)cc3)cc2c(=O)n1C[C@H]1CCCN(C(C)C)C1.Cl
Reply: label 0

Query: Confirm if Population Mitotic Cells (%) reported for the molecule O=C(O)c1cc2ccccc2c(Cc2c(O)c(C(=O)O)cc3ccccc23)c1O [PAMOIC ACID] is 60% or above.
Reply: label 1

Query: Confirm if Population Mitotic Cells (%) reported for the molecule C[C@H]1[C@H]2CC[C@H]3[C@@H]4CC=C5C[C@@H](N(C)C)CC[C@]5(C)[C@H]4CC[C@]23CN1C [CONESSINE] is 60% or above.
Reply: label 1

Query: Does the reported Population Mitotic Cells (%) for Oc1c(CN2CCN(c3ccccn3)CC2)cc(Cl)c2cccnc12 fall at or above the 60% mark?
Reply: label 0
